- Experimental Target: HTRA1 (construct not given) (Homo sapiens (Human), UniProt Q92743 23-480, limits assumed)
- Sequence (Q92743 23-480 limits assumed): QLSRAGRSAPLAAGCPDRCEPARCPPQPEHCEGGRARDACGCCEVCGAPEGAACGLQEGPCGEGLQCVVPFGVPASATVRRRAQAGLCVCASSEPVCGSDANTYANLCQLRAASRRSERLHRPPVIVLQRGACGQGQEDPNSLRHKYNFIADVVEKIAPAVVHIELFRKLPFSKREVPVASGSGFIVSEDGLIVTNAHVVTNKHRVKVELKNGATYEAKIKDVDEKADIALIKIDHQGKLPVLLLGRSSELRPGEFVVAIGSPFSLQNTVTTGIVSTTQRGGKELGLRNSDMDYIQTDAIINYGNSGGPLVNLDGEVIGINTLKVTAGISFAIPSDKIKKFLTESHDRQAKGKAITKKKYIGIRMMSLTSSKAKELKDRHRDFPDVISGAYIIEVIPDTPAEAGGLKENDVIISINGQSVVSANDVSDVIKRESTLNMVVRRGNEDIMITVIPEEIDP
- Method: SPR (Biacore)
- Procedure: The binding affinities of anti-HTRA1 antibodies to human HTRA1 were measured using a Biacore system (GE Healthcare Life Sciences). Briefly, anti-Fc antibody (Sigma-Aldrich) was immobilized on all four flow cells of a CMS chip using amine coupling reagents (GE Healthcare LifeSciences). Antibodies were captured on flow cells 2, 3, and 4 using flow cell 1 as a reference. Concentrations ranging from 3.3-10 nM of human delta N-HTRA1 were injected at a flow rate of 50 μL/min at 37° C. […]
Experimental Readout: kon (M⁻¹ s⁻¹)
Please state the figure in M⁻¹ s⁻¹; there is no need to write the unit.

Ask | Data request, read-out kon, for hz24F7.v2 S92D (antibody, human IgG1, kappa, N297G, V domains shown, hz24F7.v2 with a substitution in light chain CDR3) VH: QVQLVQSGAEVKKPGASVKVSCKASGYTFTDYEMHWVRQAPGQRLEWMGAIDPETGGTAYNQKFKGRVTITADKSASTAYMELSSLRSEDTAVYYCTREGYSYEGGGYYFDYWGQGTLVTVSS VL: DIQMTQSPSSLSASVGDRVTITCSVSSSVSYMYWYQQKPGKAPKLLIYDTSNLASGVPSRFSGSGSGTDFTFTISSLQPEDIATYYCQQWSDYPTFGQGTKLEIKR
Reply | 8.7e+06

Ask | Then hz24F7.v2 S91Y (antibody, human IgG1, kappa, N297G, V domains shown, hz24F7.v2 with a substitution in light chain CDR3) VH: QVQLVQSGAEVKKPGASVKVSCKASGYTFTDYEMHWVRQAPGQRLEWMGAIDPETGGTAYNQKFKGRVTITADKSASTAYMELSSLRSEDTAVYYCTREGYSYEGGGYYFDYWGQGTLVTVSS VL: DIQMTQSPSSLSASVGDRVTITCSVSSSVSYMYWYQQKPGKAPKLLIYDTSNLASGVPSRFSGSGSGTDFTFTISSLQPEDIATYYCQQWYSYPTFGQGTKLEIKR ?
Reply | 4.54e+06
